Catalogue of compounds with associated pIC50
Test system: KYSE-150 esophageal carcinoma cell line
Test: In vitro cell-based assay: cellular proliferation via BrdU incorporation (ELISA)
Parameters: species or system human
Conditions: Homo sapiens, KYSE-150, 168 hours compound incubation
pIC50: −log10 of the molar value.

INSERT INTO assay_data (compound, target_desc, experimental_readout, data_value) VALUES
  ('Cc1cccc(-c2ccc3c(c2)OCC[C@H]3CNc2cnccc2C(=O)O)c1', 'KYSE-150 esophageal carcinoma cell line', 'pIC50', '6.00 to 7.00');

Entry COCc1ccc(N(C)c2ccc3c(c2)CCC[C@H]3CNc2cnccc2C(=O)O)cc1 has what pIC50?
≥ 7.00

Entry CCOc1ccc(N(C)c2ccc3c(c2)CCC[C@H]3CNc2cnccc2C(=O)O)cc1 has what pIC50?
≥ 7.00

Entry CN(c1ccccc1)c1ccc2c(c1)CCC[C@H]2CNc1nnccc1C(=O)O has what pIC50?
≥ 7.00

Entry CN(c1ccc(N2CCC2)cc1)c1ccc2c(c1)CCC[C@H]2CNc1cnccc1C(=O)O has what pIC50?
≥ 7.00

Entry CN(c1ccc2c(c1)CCC2)c1ccc2c(c1)OCC[C@H]2CNc1cnccc1C(=O)O has what pIC50?
≥ 7.00

Entry Cc1ccc(-c2ccc3c(c2)OCC[C@H]3CNc2cnccc2C(=O)O)cc1 has what pIC50?
5.00 to 6.00

Entry C=Cc1ccc(N(C)c2ccc3c(c2)OCC[C@H]3CNc2cnccc2C(=O)O)cc1 has what pIC50?
≥ 7.00

Entry COCCN(c1ccc(C2CC2)cc1)c1ccc2c(c1)CCC[C@H]2CNc1cnccc1C(=O)O has what pIC50?
≥ 7.00
